Each item that follows carries a reported Var.EC50/HuIgG1 EC50.
- target_or_system: T1, rhesus CD11a (rhesus) (UniProt H9Z8N3)
- T1 sequence: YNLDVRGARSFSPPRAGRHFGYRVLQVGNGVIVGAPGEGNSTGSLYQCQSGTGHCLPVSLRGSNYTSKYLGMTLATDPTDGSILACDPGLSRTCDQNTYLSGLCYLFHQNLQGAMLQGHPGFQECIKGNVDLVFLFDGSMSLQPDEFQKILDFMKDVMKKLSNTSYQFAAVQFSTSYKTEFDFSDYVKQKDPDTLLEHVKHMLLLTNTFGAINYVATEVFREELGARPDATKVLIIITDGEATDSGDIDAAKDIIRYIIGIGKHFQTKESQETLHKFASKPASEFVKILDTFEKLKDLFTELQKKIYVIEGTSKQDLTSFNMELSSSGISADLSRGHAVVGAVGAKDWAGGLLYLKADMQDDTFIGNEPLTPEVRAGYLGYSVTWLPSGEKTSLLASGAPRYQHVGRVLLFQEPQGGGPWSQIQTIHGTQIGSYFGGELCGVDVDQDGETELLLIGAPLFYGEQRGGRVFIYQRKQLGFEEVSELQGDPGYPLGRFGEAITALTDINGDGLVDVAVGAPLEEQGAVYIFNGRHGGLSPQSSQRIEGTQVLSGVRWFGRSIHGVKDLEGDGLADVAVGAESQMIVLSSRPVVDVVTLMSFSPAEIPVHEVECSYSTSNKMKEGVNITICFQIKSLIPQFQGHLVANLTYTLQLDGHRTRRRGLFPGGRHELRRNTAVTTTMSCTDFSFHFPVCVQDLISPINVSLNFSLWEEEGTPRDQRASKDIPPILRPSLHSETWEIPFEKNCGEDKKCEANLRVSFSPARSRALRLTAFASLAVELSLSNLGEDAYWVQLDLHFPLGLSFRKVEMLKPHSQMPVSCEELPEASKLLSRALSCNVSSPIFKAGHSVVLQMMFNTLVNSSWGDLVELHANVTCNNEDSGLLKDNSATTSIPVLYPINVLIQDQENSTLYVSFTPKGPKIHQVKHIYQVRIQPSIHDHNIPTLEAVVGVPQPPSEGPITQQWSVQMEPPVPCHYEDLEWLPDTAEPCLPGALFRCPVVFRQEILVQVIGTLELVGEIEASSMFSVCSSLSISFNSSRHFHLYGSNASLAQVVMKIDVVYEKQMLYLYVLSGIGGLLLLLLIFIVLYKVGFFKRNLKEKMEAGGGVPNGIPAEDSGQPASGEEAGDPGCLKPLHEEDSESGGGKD
- assay_overview: binding to rhesus peripheral blood lymphocytes
Form: value (number only, do not type unit).

Reference set (5 entries):
| binder | Var.EC50/HuIgG1 EC50 |
| --- | --- |
| H2C5 variant IgG1 (antibody, V domains shown) VH: EVQLVESGGGLVQPGGSLRLSCAASGYSFTGHWMNWVRQAPGKGLEWVGMIAPANSNTRYNQKFKDRFTISVDKSKNTLYLQMNSLRAEDTAVYYCARGIYFYGTTYFDYWGQGTLVTVSS VL: DIQMTQSPSSLSASVGDRVTITCRASKTISKYLAWYQQKPGKAPKLLIYSGSTLQSGVPSRFSGSGSGTDFTLTISSLQPEDFATYYCQQHNEYPLTFGQGTKVEIK | 0.11 |
| H2C4 variant IgG1 (antibody, V domains shown) VH: EVQLVESGGGLVQPGGSLRLSCAASGYSFTGHWMNWVRQAPGKGLEWVGMIAPANSATRYNQKFKDRFTISVDKSKNTLYLQMNSLRAEDTAVYYCARGIYFYGTTYFDYWGQGTLVTVSS VL: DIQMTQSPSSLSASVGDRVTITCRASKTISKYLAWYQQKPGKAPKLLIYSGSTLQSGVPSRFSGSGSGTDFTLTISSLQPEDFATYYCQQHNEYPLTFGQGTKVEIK | 0.38 |
| LysH73Arg variant IgG1 (antibody, V domains shown) VH: EVQLVESGGGLVQPGGSLRLSCAASGYSFTGHWMNWVRQAPGKGLEWVGMIHPSDSETRYNQKFKDRFTISVDRSKNTLYLQMNSLRAEDTAVYYCARGIYFYGTTYFDYWGQGTLVTVSS VL: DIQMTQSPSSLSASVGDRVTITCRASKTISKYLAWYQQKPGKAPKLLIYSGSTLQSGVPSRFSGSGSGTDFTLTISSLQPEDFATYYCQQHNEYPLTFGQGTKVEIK | 5.5 |
| H2A3 variant IgG1 (antibody, V domains shown) VH: EVQLVESGGGLVQPGGSLRLSCAASGYSFTGHWMNWVRQAPGKGLEWVGMIAPSDAETRYNQKFKDRFTISVDKSKNTLYLQMNSLRAEDTAVYYCARGIYFYGTTYFDYWGQGTLVTVSS VL: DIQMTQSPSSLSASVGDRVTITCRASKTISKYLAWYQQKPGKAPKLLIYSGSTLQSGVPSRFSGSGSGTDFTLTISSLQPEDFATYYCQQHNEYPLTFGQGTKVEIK | 1.3 |
| SerH55Ala variant IgG1 (antibody, V domains shown) VH: EVQLVESGGGLVQPGGSLRLSCAASGYSFTGHWMNWVRQAPGKGLEWVGMIHPSDAETRYNQKFKDRFTISVDKSKNTLYLQMNSLRAEDTAVYYCARGIYFYGTTYFDYWGQGTLVTVSS VL: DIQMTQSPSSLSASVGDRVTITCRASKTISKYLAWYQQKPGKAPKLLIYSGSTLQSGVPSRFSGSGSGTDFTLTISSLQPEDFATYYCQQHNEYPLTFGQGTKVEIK | 1.3 |

binder AspH54Ala variant IgG1 (antibody, V domains shown) VH: EVQLVESGGGLVQPGGSLRLSCAASGYSFTGHWMNWVRQAPGKGLEWVGMIHPSASETRYNQKFKDRFTISVDKSKNTLYLQMNSLRAEDTAVYYCARGIYFYGTTYFDYWGQGTLVTVSS VL: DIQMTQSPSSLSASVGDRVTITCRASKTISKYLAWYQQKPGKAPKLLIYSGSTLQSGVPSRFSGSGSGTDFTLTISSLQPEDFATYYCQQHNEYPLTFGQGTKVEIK , Var.EC50/HuIgG1 EC50 observed: 0.3

binder H2 variant IgG1 (antibody, V domains shown) VH: EVQLVESGGGLVQPGGSLRLSCAASGYSFTGHWMNWVRQAPGKGLEWVGMIAPADAETRYNQKFKDRFTISVDKSKNTLYLQMNSLRAEDTAVYYCARGIYFYGTTYFDYWGQGTLVTVSS VL: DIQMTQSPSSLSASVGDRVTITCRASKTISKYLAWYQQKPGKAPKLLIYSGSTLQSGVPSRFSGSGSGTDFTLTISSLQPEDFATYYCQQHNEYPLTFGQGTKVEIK , Var.EC50/HuIgG1 EC50 observed: 0.055

binder H2A2 variant IgG1 (antibody, V domains shown) VH: EVQLVESGGGLVQPGGSLRLSCAASGYSFTGHWMNWVRQAPGKGLEWVGMIHPADAETRYNQKFKDRFTISVDKSKNTLYLQMNSLRAEDTAVYYCARGIYFYGTTYFDYWGQGTLVTVSS VL: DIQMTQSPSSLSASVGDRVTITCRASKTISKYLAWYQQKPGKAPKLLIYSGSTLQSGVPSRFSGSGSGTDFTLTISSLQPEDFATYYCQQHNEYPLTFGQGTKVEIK , Var.EC50/HuIgG1 EC50 observed: 1.1

binder ThrH30Ala variant IgG1 (antibody, V domains shown) VH: EVQLVESGGGLVQPGGSLRLSCAASGYSFAGHWMNWVRQAPGKGLEWVGMIHPSDSETRYNQKFKDRFTISVDKSKNTLYLQMNSLRAEDTAVYYCARGIYFYGTTYFDYWGQGTLVTVSS VL: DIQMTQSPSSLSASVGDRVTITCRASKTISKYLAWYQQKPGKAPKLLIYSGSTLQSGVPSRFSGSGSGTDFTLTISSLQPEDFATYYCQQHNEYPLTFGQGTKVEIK , Var.EC50/HuIgG1 EC50 observed: 1.3

binder H2C6 variant IgG1 (antibody, V domains shown) VH: EVQLVESGGGLVQPGGSLRLSCAASGYSFTGHWMNWVRQAPGKGLEWVGMIAPANSQTRYNQKFKDRFTISVDKSKNTLYLQMNSLRAEDTAVYYCARGIYFYGTTYFDYWGQGTLVTVSS VL: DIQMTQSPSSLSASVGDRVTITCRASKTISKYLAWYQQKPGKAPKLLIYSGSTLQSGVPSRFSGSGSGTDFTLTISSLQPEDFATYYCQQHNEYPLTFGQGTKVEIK , Var.EC50/HuIgG1 EC50 observed: 0.21
